biological target: TRKB (Homo sapiens)
Reported pIC50 is given for each of the following compounds.
Keep it numeric: pIC50 is minus log10 of the concentration in mol/L.

Q: # get_value(readout= pIC50, system= TRKB (Homo sapiens)) for Fc1ccc(F)c(CNc2ccc3[nH]nc(/C=C/c4ccccn4)c3c2)c1 [DYX-216A]
Ans: 8.19

Q: # get_value(readout= pIC50, system= TRKB (Homo sapiens)) for "Fc1cc(F)cc(NCc2ccc3[nH]nc(/C=C/c4ccccn4)c3c2)c1"
Ans: 7.43

* * *

target: BaF3-ETV6-NTRK3 (Homo sapiens); construct: fused on or other part: P41212 (Transcription factor ETV6); assay: Cell proliferation inhibition (CCK-8), BaF3-ETV6-NTRK3 stable strain; settings: BaF3-ETV6-NTRK3, 72 hours
Reported log10 of IC50 is given for each of the following compounds.
Would you kindly interpret these values as log10 of IC50 expressed in nM?

Q: Consider the compound Fc1ccc(F)c(CNc2ccc3[nH]nc(/C=C/c4ccccn4)c3c2)c1 [DYX-216A] and give its measured log10 of IC50.
Ans: 0.86

Q: Consider the compound "C[C@@H](Nc1ccc2[nH]nc(/C=C/c3ccccn3)c2c1)c1cccc(F)c1" and give its measured log10 of IC50.
Ans: 1.02

Q: Consider the compound "C[C@@H](Nc1ccc2[nH]nc(/C=C/c3cnn(CCO)c3)c2c1)c1cccc(F)c1" and give its measured log10 of IC50.
Ans: 0.52

Q: Consider the compound "Fc1cc(F)cc(CNc2ccc3[nH]nc(/C=C/c4ccccn4)c3c2)c1" and give its measured log10 of IC50.
Ans: 1.37

Q: Consider the compound N#Cc1cccc(Cc2ccc3[nH]nc(C#Cc4ccccn4)c3c2)c1 [DYX-136Q] and give its measured log10 of IC50.
Ans: 3.32

Q: Consider the compound "O=S(=O)(Nc1ccc2[nH]nc(/C=C/c3cnn(CC(F)F)c3)c2c1)c1cc(F)cc(F)c1" and give its measured log10 of IC50.
Ans: 1.73

Q: Consider the compound "COc1cc(F)cc(Cc2ccc3[nH]nc(/C=C/c4ccccn4)c3c2)c1" and give its measured log10 of IC50.
Ans: 2.56

Q: Consider the compound "Fc1cc(F)cc(Cc2ccc3[nH]nc(/C=C/c4ccccc4F)c3c2)c1" and give its measured log10 of IC50.
Ans: 2.60

Q: Consider the compound "C[C@@H](Nc1ccc2[nH]nc(/C=C/c3cnn(CCO)c3)c2c1)c1cc(F)cc(F)c1" and give its measured log10 of IC50.
Ans: 0.73

* * *

target: UniProtKB Q16288
Label TRUE when IC50 < 100 nM; otherwise FALSE.

The examples below pair each entry with its known result.
Fc1cc(F)cc(CNc2ccc3[nH]nc(/C=C/c4ccccn4)c3c2)c1	TRUE
Fc1cccc(Cc2ccc3[nH]nc(/C=C/c4ccccn4)c3c2)c1	TRUE
Fc1cc(F)cc(Cc2ccc3[nH]nc(/C=C/c4ccccc4)c3c2)c1	FALSE

Q: Please determine if Cc1cccc(Cc2ccc3[nH]nc(/C=C/c4ccccn4)c3c2)c1 [DYX-137X] is below 100 nM in terms of IC50.
Ans: TRUE

Q: Please determine if Clc1cccc(Cc2ccc3[nH]nc(/C=C/c4ccccn4)c3c2)c1 [DYX-134X] is below 100 nM in terms of IC50.
Ans: TRUE

* * *

target: UniProt P04629
Reported IC50 is given for each of the following molecules.
Express it in nM; write the number only.

Worked examples follow.
Fc1cc(F)cc(CNc2ccc3[nH]nc(/C=C/c4ccccn4)c3c2)c1	1.7
Fc1cc(F)cc(Cc2ccc3[nH]nc(/C=C/c4ccccc4)c3c2)c1	10.6
Fc1cc(Cc2ccc3[nH]nc(/C=C/c4ccccn4)c3c2)cc(F)c1F	628
CN(c1cc(F)cc(F)c1)c1ccc2[nH]nc(/C=C/c3ccccn3)c2c1	15
CN(Cc1cc(F)cc(F)c1)c1ccc2[nH]nc(/C=C/c3ccccn3)c2c1	18.7
O=S(=O)(c1cc(F)cc(F)c1)c1cc2c(/C=C/c3ccccn3)n[nH]c2cn1	318
COc1cccc(Cc2ccc3[nH]nc(C#Cc4ccccn4)c3c2)c1 [DYX-135Q]	292

Okay, next one:
Q: # get_value(readout= IC50, system= UniProt P04629) for "Fc1cc(F)cc(COc2ccc3[nH]nc(/C=C/c4ccccn4)c3c2)c1"
Ans: 3.3

* * *

Reported pIC50 is given for each of the following compounds.
biological target: BaF3-ETV6-NTRK3 (Homo sapiens, UniProt Q16288); construct: fused on or other part: P41212 (Transcription factor ETV6); assay: Cell proliferation inhibition (CCK-8), BaF3-ETV6-NTRK3 stable strain; conditions: BaF3-ETV6-NTRK3, 72 hours
Sequence (Q16288 whole entry, the tested form may be a part): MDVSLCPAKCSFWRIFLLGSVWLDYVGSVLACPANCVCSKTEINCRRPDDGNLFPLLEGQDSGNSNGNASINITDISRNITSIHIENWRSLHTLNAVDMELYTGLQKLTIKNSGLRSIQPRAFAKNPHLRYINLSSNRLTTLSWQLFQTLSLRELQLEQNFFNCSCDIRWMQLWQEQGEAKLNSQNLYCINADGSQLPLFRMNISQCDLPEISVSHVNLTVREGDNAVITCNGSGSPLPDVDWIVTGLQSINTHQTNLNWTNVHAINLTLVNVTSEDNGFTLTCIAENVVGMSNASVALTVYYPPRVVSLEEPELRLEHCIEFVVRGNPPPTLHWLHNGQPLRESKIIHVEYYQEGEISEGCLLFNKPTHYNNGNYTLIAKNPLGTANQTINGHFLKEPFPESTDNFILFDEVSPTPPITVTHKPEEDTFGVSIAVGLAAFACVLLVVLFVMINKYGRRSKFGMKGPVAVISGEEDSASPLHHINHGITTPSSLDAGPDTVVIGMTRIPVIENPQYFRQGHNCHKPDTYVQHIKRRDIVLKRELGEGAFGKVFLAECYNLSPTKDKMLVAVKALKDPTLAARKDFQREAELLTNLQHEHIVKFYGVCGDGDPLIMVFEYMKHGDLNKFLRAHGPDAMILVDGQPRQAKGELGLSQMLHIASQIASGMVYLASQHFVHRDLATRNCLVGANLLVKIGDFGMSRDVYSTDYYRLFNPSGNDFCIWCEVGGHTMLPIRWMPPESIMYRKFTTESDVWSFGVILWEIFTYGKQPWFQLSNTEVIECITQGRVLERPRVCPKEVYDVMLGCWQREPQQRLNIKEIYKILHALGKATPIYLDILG
Keep it numeric: pIC50 is minus log10 of the concentration in mol/L.

O=C(/C=C/c1n[nH]c2ccc(NCc3cc(F)cc(F)c3)cc12)N1CC[C@@H](O)C1	7.48
Fc1ccc(Cc2ccc3[nH]nc(/C=C/c4ccccn4)c3c2)cc1F	5.49
COc1cc(F)cc(CNc2ccc3[nH]nc(/C=C/c4ccccn4)c3c2)c1	6.74

Q: Consider the compound "O=S(=O)(c1cc(F)cc(F)c1)c1ccc2[nH]nc(/C=C/c3ccccn3)c2c1" and give its measured pIC50.
Ans: 6.81

Q: Consider the compound "Fc1cc(F)cc(Oc2ccc3[nH]nc(C#Cc4ccccn4)c3c2)c1" and give its measured pIC50.
Ans: 5.56

Q: Consider the compound "Fc1ccc(CNc2ccc3[nH]nc(/C=C/c4ccccn4)c3c2)cc1" and give its measured pIC50.
Ans: 6.24

Q: Consider the compound "O=S(=O)(c1cc(F)cc(F)c1)c1cc2c(/C=C/c3ccccn3)n[nH]c2cn1" and give its measured pIC50.
Ans: 5.51

Q: Consider the compound "NC(=O)/C=C/c1n[nH]c2ccc(NCc3cc(F)cc(F)c3)cc12" and give its measured pIC50.
Ans: 7.45

Q: Consider the compound "Fc1cc(F)cc(OCc2ccc3[nH]nc(/C=C/c4ccccn4)c3c2)c1" and give its measured pIC50.
Ans: 5.98

Q: Consider the compound "CCn1cc(/C=C/c2n[nH]c3ccc(NS(=O)(=O)c4cc(F)cc(F)c4)cc23)cn1" and give its measured pIC50.
Ans: 7.85

Q: Consider the compound "O=S(=O)(Nc1ccc2[nH]nc(/C=C/c3cnn(CCO)c3)c2c1)c1cc(F)cc(F)c1" and give its measured pIC50.
Ans: 6.89

Q: Consider the compound "Fc1ccccc1Cc1ccc2[nH]nc(C#Cc3ccccn3)c2c1" and give its measured pIC50.
Ans: 5.58

Q: Consider the compound "Fc1cccc(F)c1Cc1ccc2[nH]nc(C#Cc3ccccn3)c2c1" and give its measured pIC50.
Ans: 5.56

* * *

Reported pIC50 is given for each of the following molecules.
target: BaF3-CD74-NTRK1 (Homo sapiens, UniProt P04629); construct: fused on or other part: P04233 (HLA class II histocompatibility antigen gamma chain); test: Cell proliferation inhibition (CCK-8), BaF3-CD74-NTRK1 stable strain; conditions: BaF3-CD74-NTRK1, 72 hours
Sequence (P04629 510-796 limits assumed): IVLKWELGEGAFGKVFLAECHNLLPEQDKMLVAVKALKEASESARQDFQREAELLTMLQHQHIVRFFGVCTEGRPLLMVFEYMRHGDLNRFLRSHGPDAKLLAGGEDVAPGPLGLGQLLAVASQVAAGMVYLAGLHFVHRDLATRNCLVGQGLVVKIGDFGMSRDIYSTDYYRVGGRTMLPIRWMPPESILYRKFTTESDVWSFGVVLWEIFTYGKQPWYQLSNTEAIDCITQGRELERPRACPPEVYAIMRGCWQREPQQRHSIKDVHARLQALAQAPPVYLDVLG
Keep it numeric: pIC50 is minus log10 of the concentration in mol/L.

Worked examples follow.
C[C@@H](Nc1ccc2[nH]nc(/C=C/c3cnn(C)c3)c2c1)c1cc(F)cc(F)c1	8.19
O=S(=O)(Nc1ccc2[nH]nc(/C=C/c3ccccn3)c2c1)c1cc(F)cc(F)c1	6.90
O=S(=O)(c1cc(F)cc(F)c1)c1ccc2[nH]nc(/C=C/c3ccccn3)c2n1	7.19
Fc1ccc(Cc2ccc3[nH]nc(/C=C/c4ccccn4)c3c2)cc1	5.06

Q: Consider the molecule "Fc1cc(F)cc(Cc2ccc3[nH]nc(/C=C/c4ccccc4F)c3c2)c1" and give its measured pIC50.
Ans: 6.20

* * *

target: TRKB (Homo sapiens, UniProt Q16620)
Sequence (Q16620 32-822): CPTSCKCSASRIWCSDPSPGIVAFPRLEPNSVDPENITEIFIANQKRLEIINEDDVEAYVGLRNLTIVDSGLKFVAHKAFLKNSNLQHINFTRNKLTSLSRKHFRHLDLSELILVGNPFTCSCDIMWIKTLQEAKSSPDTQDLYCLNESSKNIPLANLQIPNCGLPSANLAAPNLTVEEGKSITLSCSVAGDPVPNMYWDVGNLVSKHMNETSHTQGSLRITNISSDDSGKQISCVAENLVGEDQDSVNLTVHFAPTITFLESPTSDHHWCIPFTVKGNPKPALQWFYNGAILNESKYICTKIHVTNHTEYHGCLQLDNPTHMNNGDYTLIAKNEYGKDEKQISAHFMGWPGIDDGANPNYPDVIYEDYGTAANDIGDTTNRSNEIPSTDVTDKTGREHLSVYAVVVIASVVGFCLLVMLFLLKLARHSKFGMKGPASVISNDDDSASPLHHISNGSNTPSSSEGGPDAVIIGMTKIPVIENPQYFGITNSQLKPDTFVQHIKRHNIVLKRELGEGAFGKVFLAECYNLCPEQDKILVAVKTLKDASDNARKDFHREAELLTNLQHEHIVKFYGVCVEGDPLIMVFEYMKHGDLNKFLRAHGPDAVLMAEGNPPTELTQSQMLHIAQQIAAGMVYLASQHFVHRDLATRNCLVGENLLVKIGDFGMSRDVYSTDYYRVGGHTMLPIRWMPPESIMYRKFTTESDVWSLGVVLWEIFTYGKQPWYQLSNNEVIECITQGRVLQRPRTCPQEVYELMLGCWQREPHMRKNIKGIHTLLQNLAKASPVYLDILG
pIC50: −log10 of the molar value.
Please enter satisfied where pIC50 is greater than or equal to 7, and not satisfied where it is lower.

Q: Check if pIC50 >= 7 (inclusive). Item: Cc1cccc(/C=C/c2n[nH]c3ccc(Cc4cc(F)cc(F)c4)cc23)n1 [DYX-09]
Ans: satisfied

* * *

target: BaF3-ETV6-NTRK3 (Homo sapiens, UniProt Q16288); construct: fused on or other part: P41212 (Transcription factor ETV6); assay: Cell proliferation inhibition (CCK-8), BaF3-ETV6-NTRK3 stable strain; conditions: BaF3-ETV6-NTRK3, 72 hours
pIC50: −log10 of the molar value.
Please enter label 1 where pIC50 is greater than or equal to 7, and label 0 where it is lower.

The examples below pair each entry with its known result.
O=S(=O)(c1cc(F)cc(F)c1)c1ccc2[nH]nc(/C=C/c3ccncc3)c2c1	label 1
C[C@@H](Nc1ccc2[nH]nc(/C=C/c3ccncc3)c2c1)c1cc(F)cc(F)c1	label 1
O=S(=O)(Nc1ccc2[nH]nc(/C=C/c3cn[nH]c3)c2c1)c1cc(F)cc(F)c1	label 0
Fc1cc(F)cc(Cc2ccc3[nH]nc(/C=C/c4ccccc4)c3c2)c1	label 0
Fc1cc(F)cc(Nc2ccc3[nH]nc(/C=C/c4ccccn4)c3c2)c1	label 0
Fc1cc(F)cc(Sc2ccc3[nH]nc(C#Cc4ccccn4)c3c2)c1	label 0
N#CCn1cc(/C=C/c2n[nH]c3ccc(NS(=O)(=O)c4cc(F)cc(F)c4)cc23)cn1	label 1
CC(C)NC(=O)/C=C/c1n[nH]c2ccc(NCc3cc(F)cc(F)c3)cc12	label 0
Fc1ccc(Cc2ccc3[nH]nc(C#Cc4ccccn4)c3c2)cc1	label 0
O=S(=O)(Nc1ccc2[nH]nc(/C=C/c3ccccn3)c2c1)c1cc(F)cc(F)c1	label 1

Q: Check if pIC50 >= 7 (inclusive). Item: "Fc1cccc(F)c1Cc1ccc2[nH]nc(/C=C/c3ccccn3)c2c1"
Ans: label 0

Q: Check if pIC50 >= 7 (inclusive). Item: "CC(C)n1cc(/C=C/c2n[nH]c3ccc(NS(=O)(=O)c4cc(F)cc(F)c4)cc23)cn1"
Ans: label 1
